Examples of compounds with documented log10 MIC follow.
# Tested on: Str. pyogenes A-9604
Attribute Measured: log10 MIC (log10 of the value in µg/mL)

> print(dat)
                                    compound  data.value
 1  CC1(C)OCC(C(N)C2=C(C(=O)O)N3C(=O)CC3S2)O1 (stereo not drawn)        0.00
 2  CCC1C(=O)N2C(C(=O)[O-])=C(C)S[C@H]12.[Na+] (stereo partly drawn) [1 (cis)]        0.60
 3  CC1=C(C(=O)O)N2C(=O)[C@H]([C@@H](C)O)[C@H]2S1 (relative stereo)        0.00
 4  Nc1ccccc1CC1=C(C(=O)O)N2C(=O)CC2S1 (stereo not drawn)        0.00
 5  CC(=O)NCCC1=C(C(=O)O)N2C(=O)CC2S1 (stereo not drawn)       -0.60
 6  C[C@@H](O)[C@H]1C(=O)N2C(C(=O)O)=C([C@H]3C[C@H](N)C3)S[C@H]12 (relative stereo)       -2.40
 7  N=C(Cc1ccccc1)NCC1=C(C(=O)O)N2C(=O)CC2S1 (stereo not drawn)       -0.30
 8  O=C([O-])C1=C(Cc2ccco2)S[C@@H]2CC(=O)N12.[Na+]       -0.60
 9  O=C([O-])C1=C(COCc2ccccc2)S[C@@H]2CC(=O)N12.[Na+] [Preparation 14 (Na^+ Salt)]       -1.22
10  O=C(O)C1=CSC2CC(=O)N12 (stereo not drawn)        0.30
11  C[C@@H](O)[C@H]1C(=O)N2C(C(=O)O)=C(CN)S[C@H]12 (relative stereo)       -0.30
12  CC1(CC2=C(C(=O)O)N3C(=O)CC3S2)OCCO1 (stereo not drawn)       -0.60
13  O=C(O)CCC1=C(C(=O)O)N2C(=O)CC2S1 (stereo not drawn)        0.60
14  CC1=C(C(=O)O)N2C(=O)[C@H]([C@H](O)Cc3ccccc3)[C@H]2S1 (relative stereo)        1.51
15  O=C(O)C1=C(Cn2cnnn2)SC2CC(=O)N12 (stereo not drawn)       -0.30
16            CCC1=C(C(=O)O)N2C(=O)C[C@H]2S1       -0.30
17  COCC1=C(C(=O)[O-])N2C(=O)C[C@H]2S1.[Na+]       -0.60
18  NCCCC1=C(C(=O)O)N2C(=O)CC2S1 (stereo not drawn) [Example 22, Sodium 2-Aminopropylpenem-3-carboxylate]        0.30

---

# Test system: Pr. morganii A-15153
# Measurement Notes: MIC, tube dilution, Proteus morganii A15153
# Format: cell-based
# Protocol Conditions: Morganella morganii, A15153, Proteus morganii A15153; overnight 37° C.; read-out: Minimum Inhibitory Concentration (M.I.C.)
# Excerpt: Representative compounds of the present invention were subjected to in vitro antibiotic screening against a variety of microorganisms.
Attribute Measured: MIC (µg/mL)

> print(dat)
                                   molecule      target.or.system  attribute.measured  unit.name  censoring.sign  data.value
1  COCOC[C@H](O)[C@H]1C(=O)N2C(C(=O)O)=C(C)S[C@H]12 (relative stereo)  Pr. morganii A-15153                 MIC      µg/mL               >          63
2  CC1=C(C(=O)O)N2C(=O)[C@H]([C@@H]3COC(C)(C)O3)[C@H]2S1 (relative stereo)  Pr. morganii A-15153                 MIC      µg/mL               >          63
3  COCOC[C@@H](O)[C@H]1C(=O)N2C(C(=O)O)=C(C)S[C@H]12 (relative stereo)  Pr. morganii A-15153                 MIC      µg/mL               >          63
4  CC(N)C1=C(C(=O)O)N2C(=O)CC2S1 (stereo not shown)  Pr. morganii A-15153                 MIC      µg/mL               >         125
5  CSC1C(=O)N2C(C(=O)O)=C(C)SC12 (stereo not shown)  Pr. morganii A-15153                 MIC      µg/mL               =         125
6  N[C@H]1C[C@H](C2=C(C(=O)O)N3C(=O)C[C@H]3S2)C1  Pr. morganii A-15153                 MIC      µg/mL               =           4
7  CC(C)(C)CC1=C(C(=O)O)N2C(=O)CC2S1 (stereo not shown)  Pr. morganii A-15153                 MIC      µg/mL               =          63

---

Recorded MIC values (K. pneumoniae A-15130) are given below.
Attribute Measured: MIC

> print(dat)
                                   molecule    data.value
1  C[C@@H](O)[C@H]1C(=O)N2C(C(=O)O)=C([C@H]3C[C@H](N)C3)S[C@H]12 (relative stereo)  < 0.25 µg/mL
2  CC1=C(C(=O)O)N2C(=O)[C@H]([C@@H]3COC(C)(C)O3)[C@H]2S1 (relative stereo)    > 63 µg/mL
3  CSC(SC)C1=C(C(=O)O)N2C(=O)CC2S1 (stereo not shown)   > 125 µg/mL
4  CC1=C(C(=O)O)N2C(=O)C(C(O)c3ccccc3)C2S1 (stereo not shown)   > 125 µg/mL

---

Examples of compounds with documented MIC follow.
# System: Staph. aureus A-9537 and 50% serum
# Measurement Notes: MIC, tube dilution, Staph. aureus A9537 + 50% serum
# Type: cell-based, Staphylococcus aureus
# Protocol Conditions: Staphylococcus aureus, overnight 37° C., read-out: Minimum Inhibitory Concentration (M.I.C.)
Attribute Measured: MIC

> print(dat)
                                   compound  attribute.measured  data.value
1  CC1=C(C(=O)O)N2C(=O)[C@H]([C@H](O)Cc3ccccc3)[C@H]2S1 (relative stereo)                 MIC  > 63 µg/mL
2  CC1=C(C(=O)O)N2C(=O)[C@H]([C@H]3COC(C)(C)O3)[C@H]2S1 (relative stereo)                 MIC  > 32 µg/mL
3  O=C(O)C1=C(Cc2cccs2)SC2CC(=O)N12 (stereo not drawn)                 MIC  > 63 µg/mL
4   O=C(O)C1=C(COc2ccccc2)S[C@@H]2CC(=O)N12                 MIC  > 63 µg/mL
5  CC1=C(C(=O)O)N2C(=O)C(C(C)(C)O)C2S1 (stereo not drawn)                 MIC  > 63 µg/mL
6  CSC(SC)C1=C(C(=O)O)N2C(=O)CC2S1 (stereo not drawn)                 MIC  > 63 µg/mL

---

List of MIC tested on Ser. marcescens A-20019.
Attribute Measured: MIC

> print(dat)
                                   compound   data.value
1  CC[C@@H](O)[C@H]1C(=O)N2C(C(=O)O)=C(C)S[C@H]12 (relative stereo)  > 125 µg/mL
2  CCC1C(=O)N2C(C(=O)[O-])=C(C)S[C@H]12.[Na+] (stereo partly drawn) [1 (cis)]  > 125 µg/mL
3  COCOC[C@H](O)[C@H]1C(=O)N2C(C(=O)O)=C(C)S[C@H]12 (relative stereo)   > 63 µg/mL

---

# Tested on: K. pneumoniae A-15130
Attribute Measured: MIC

> print(dat)
                                   compound   data.value
1  COCOC[C@@H](O)[C@H]1C(=O)N2C(C(=O)O)=C(C)S[C@H]12 (relative stereo)   > 63 µg/mL
2  CC[C@H](O)[C@H]1C(=O)N2C(C(=O)O)=C(C)S[C@H]12 (relative stereo)  > 125 µg/mL
3  NCCC1=C(C(=O)O)N2C(=O)CC2S1 (stereo not drawn)  > 125 µg/mL

---

// reported MIC per item
# Test system: Klebsiella species A20468
# Measurement Notes: MIC, tube dilution, Klebsiella species A20468
# Assay type: cell-based
# Protocol Conditions: Klebsiella species (K. pneumoniae) A20468; overnight 37° C.; read-out: Minimum Inhibitory Concentration (M.I.C.)
Attribute Measured: MIC

> print(dat)
                                   compound   data.value
1  COCOC[C@H](O)[C@H]1C(=O)N2C(C(=O)O)=C(C)S[C@H]12 (relative stereo)   > 63 µg/mL
2            CCC1=C(C(=O)O)N2C(=O)C[C@H]2S1  > 125 µg/mL
3  O=C(O)C1=C(Cn2cnnn2)SC2CC(=O)N12 (centres unmarked)  > 125 µg/mL
4  O=C(O)C1=CSC2CC(=O)N12 (centres unmarked)  > 125 µg/mL
5             CC1=C(C(=O)O)N2C(=O)C[C@H]2S1  > 125 µg/mL
6  N#CCCC(N)C1=C(C(=O)O)N2C(=O)C[C@H]2S1 (some centres unmarked)  > 125 µg/mL
7  NCc1ccc(CC2=C(C(=O)O)N3C(=O)CC3S2)cc1 (centres unmarked)   > 63 µg/mL
8  O=C(O)C1=C(Cc2cccs2)SC2CC(=O)N12 (centres unmarked)  > 125 µg/mL
